Data origin, for the record: patent US9493478B2

Molecular target: PI3Kγ (p120γ)(h) (Homo sapiens)
Assay: Assay for phosphatidylinositol 3-kinase gamma (PI3Kγ) activity, PI3K-HTRF kit
Format: biochemical
Settings: TR-FRET; enzyme 1.45 μg/ml, 10 μM PIP2, 10 μM ATP
Description: The compounds of the present invention were assayed for the activity of phosphatidylinositol 3-kinase gamma (PI3Kγ) by using a PI3K enzyme-homogenous time resolved fluorescence (PI3K-HTRF) kit, which is available from Upstate (Millipore Co, Billerica, Mass., USA). […]
hey, just use Criterion met if measured IC50 is less than 20 nM, otherwise Criterion not met

COC(=O)c1cccc(C#Cc2cncc3cc(/C=C4\SC(=O)NC4=O)oc23)c1 [Example 542]    Criterion not met

(Q) Problem: For the compound CNS(=O)(=O)c1ccc(-c2cncc3cc(/C=C4\SC(=O)NC4=O)oc23)cc1F [Example 279] , is IC50 under 20 nM?
(A) Criterion met

(Q) For this compound, is IC50 lower than 20 nM? O=C1NC(=S)S/C1=C\c1cc2cncc(-c3cc(Cl)c(S(=O)(=O)N4CCOCC4)c(Cl)c3)c2o1 [Example 343]
(A) Criterion met

(Q) Hello, is IC50 of the following compound strictly smaller than 20 nM? Cc1cc(-c2cncc3cc(/C=C4\SC(=S)NC4=O)oc23)cnc1F [Example 195]
(A) Criterion met

(Q) Answer whether the compound COC(=O)c1ccc(C#Cc2cncc3cc(/C=C4\SC(=O)NC4=O)oc23)cc1 [Example 532] has IC50 strictly less than 20 nM
(A) Criterion not met

(Q) hey, is IC50 for COc1cc(C#Cc2cncc3cc(/C=C4\SC(=O)NC4=O)oc23)cc(OC)c1 [Example 450] lower than 20 nM or not?
(A) Criterion met

(Q) Criterion: IC50 strictly below 20 nM. Is it met by CC(C)c1ccccc1C#Cc1cncc2cc(/C=C3\SC(=S)NC3=O)oc12 [Example 554] ?
(A) Criterion not met

(Q) Field: below-cutoff. Rule: recorded IC50 strictly less than 20 nM. Subject: COc1c(C)cc(-c2cncc3cc(/C=C4\SC(=S)NC4=O)oc23)cc1C [Example 196]
(A) Criterion met

(Q) Input COc1ccc(-c2cncc3cc(/C=C4\SC(=S)NC4=O)oc23)cc1F [Example 161] ; condition: IC50 strictly below 20 nM. Does it hold?
(A) Criterion met

(Q) Say whether its IC50 is strictly beneath 20 nM. Entry: COc1ccc(-c2cncc3cc(/C=C4\SC(=O)NC4=O)oc23)cc1OC [Example 33]
(A) Criterion met

(Q) Quick check: does O=C1NC(=S)S/C1=C\c1cc2cncc(-c3ccc(F)nc3)c2o1 [Example 153] have IC50 under 20 nM?
(A) Criterion met

(Q) is_below(IC50, 20 nM) for Cn1cc(-c2cncc3cc(/C=C4\SC(=O)NC4=O)oc23)cn1 [Example 12] ?
(A) Criterion not met

(Q) Hello, is IC50 of the following compound strictly smaller than 20 nM? CN1CCN(Cc2ccc(-c3cncc4cc(/C=C5\SC(=O)NC5=O)oc34)cc2)CC1 [Example 134]
(A) Criterion not met

(Q) Please check: IC50 for O=C1NC(=O)/C(=C/c2cc3cncc(C#Cc4cccc(C(F)(F)F)c4)c3o2)S1 [Example 441] , strictly under 20 nM or not?
(A) Criterion met

(Q) Quick check: does COc1ccc(C#Cc2cncc3cc(/C=C4\SC(=O)NC4=O)oc23)cc1OC [Example 469] have IC50 under 20 nM?
(A) Criterion met

(Q) Identify whether the compound COC(=O)c1cccc(C#Cc2cncc3cc(/C=C4\SC(=S)NC4=O)oc23)c1 [Example 569] records IC50 below 20 nM.
(A) Criterion met

(Q) Could you please tell me whether IC50 recorded for N#Cc1ccc(C#Cc2cncc3cc(/C=C4\SC(=S)NC4=O)oc23)cc1 [Example 548] is less than 20 nM?
(A) Criterion not met

---

Quick reference for IC50 among some compounds
target: PI3K β (p110β/p85α)(h) (Homo sapiens); assay: Assay for phosphatidylinositol 3-kinase beta (PI3Kβ) activity, PI3K-HTRF kit; type: biochemical; conditions: TR-FRET; enzyme 0.725 μg/ml, 10 μM PIP2, 10 μM ATP
Sequence (P42338 whole entry): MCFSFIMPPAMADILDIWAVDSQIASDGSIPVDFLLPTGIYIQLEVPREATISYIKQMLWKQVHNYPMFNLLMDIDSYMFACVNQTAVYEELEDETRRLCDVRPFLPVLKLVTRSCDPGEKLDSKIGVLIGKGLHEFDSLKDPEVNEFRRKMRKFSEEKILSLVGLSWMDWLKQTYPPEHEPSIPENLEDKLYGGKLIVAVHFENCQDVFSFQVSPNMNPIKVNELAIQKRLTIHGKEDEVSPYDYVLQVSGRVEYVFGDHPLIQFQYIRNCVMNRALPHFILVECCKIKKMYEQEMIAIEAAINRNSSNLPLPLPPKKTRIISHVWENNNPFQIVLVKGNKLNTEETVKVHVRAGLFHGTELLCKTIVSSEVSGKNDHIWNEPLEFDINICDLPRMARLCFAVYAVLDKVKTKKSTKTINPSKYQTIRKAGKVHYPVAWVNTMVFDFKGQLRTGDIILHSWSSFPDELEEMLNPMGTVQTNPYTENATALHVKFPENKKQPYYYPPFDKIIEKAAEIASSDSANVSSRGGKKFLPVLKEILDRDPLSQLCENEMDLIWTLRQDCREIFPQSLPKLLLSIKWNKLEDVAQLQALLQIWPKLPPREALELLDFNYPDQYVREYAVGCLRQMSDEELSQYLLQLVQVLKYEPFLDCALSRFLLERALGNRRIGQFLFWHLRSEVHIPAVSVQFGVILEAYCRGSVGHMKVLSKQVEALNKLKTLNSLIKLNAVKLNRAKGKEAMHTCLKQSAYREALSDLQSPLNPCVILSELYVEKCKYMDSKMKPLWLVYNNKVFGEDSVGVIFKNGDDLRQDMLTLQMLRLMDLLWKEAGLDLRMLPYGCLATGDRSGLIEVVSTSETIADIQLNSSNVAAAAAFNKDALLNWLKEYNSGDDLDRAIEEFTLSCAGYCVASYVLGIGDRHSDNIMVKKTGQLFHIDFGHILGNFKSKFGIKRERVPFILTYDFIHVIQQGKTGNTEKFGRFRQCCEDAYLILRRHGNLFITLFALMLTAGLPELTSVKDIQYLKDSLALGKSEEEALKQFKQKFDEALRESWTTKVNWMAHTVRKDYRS
Sequence (P27986 whole entry partner): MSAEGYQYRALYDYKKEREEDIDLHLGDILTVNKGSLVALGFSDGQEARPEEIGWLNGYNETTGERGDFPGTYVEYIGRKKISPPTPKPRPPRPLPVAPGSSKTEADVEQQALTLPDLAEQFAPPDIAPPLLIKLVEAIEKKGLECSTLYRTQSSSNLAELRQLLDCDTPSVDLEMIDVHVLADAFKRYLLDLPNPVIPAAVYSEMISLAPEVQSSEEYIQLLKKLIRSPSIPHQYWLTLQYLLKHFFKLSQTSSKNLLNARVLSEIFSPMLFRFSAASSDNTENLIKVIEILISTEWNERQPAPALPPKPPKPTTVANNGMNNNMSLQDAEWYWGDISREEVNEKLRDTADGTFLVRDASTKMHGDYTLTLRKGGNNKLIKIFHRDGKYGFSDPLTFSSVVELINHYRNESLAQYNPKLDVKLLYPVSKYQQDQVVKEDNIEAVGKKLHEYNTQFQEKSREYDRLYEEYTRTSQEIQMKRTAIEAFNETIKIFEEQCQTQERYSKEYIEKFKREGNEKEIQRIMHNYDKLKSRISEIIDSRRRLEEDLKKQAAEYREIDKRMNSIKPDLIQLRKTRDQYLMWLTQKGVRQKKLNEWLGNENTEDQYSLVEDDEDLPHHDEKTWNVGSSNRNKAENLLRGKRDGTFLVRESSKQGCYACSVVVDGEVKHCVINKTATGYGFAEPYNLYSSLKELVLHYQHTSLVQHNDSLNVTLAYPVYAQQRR
Please state the figure in nM; there is no need to write the unit.

Worked cases, answers included:
COc1ccccc1NC(=O)c1cncc2cc(/C=C3\SC(=O)NC3=O)oc12    869
O=C1NC(=S)S/C1=C\c1cc2cncc(C#Cc3ccsc3)c2o1    3470
CC(C)NS(=O)(=O)c1c(Cl)cc(-c2cncc3cc(/C=C4\SC(=S)NC4=O)oc23)cc1Cl    3860

Moving on to the next compound.
(Q) Provide the reported IC50 (system: PI3K β (p110β/p85α)(h) (Homo sapiens)) for COc1ncc(-c2cncc3cc(/C=C4\SC(=S)NC4=O)oc23)cc1C#N
(A) 630

---

target: PI3Kα (p110α/p85α)(h) (Homo sapiens, UniProt P42336); test: Assay for phosphatidylinositol 3-kinase alpha (PI3Kα) activity, PI3K-HTRF kit; type: biochemical; conditions: TR-FRET; enzyme 0.3625 μg/ml, 10 μM PIP2, 10 μM ATP
Sequence (P42336 whole entry): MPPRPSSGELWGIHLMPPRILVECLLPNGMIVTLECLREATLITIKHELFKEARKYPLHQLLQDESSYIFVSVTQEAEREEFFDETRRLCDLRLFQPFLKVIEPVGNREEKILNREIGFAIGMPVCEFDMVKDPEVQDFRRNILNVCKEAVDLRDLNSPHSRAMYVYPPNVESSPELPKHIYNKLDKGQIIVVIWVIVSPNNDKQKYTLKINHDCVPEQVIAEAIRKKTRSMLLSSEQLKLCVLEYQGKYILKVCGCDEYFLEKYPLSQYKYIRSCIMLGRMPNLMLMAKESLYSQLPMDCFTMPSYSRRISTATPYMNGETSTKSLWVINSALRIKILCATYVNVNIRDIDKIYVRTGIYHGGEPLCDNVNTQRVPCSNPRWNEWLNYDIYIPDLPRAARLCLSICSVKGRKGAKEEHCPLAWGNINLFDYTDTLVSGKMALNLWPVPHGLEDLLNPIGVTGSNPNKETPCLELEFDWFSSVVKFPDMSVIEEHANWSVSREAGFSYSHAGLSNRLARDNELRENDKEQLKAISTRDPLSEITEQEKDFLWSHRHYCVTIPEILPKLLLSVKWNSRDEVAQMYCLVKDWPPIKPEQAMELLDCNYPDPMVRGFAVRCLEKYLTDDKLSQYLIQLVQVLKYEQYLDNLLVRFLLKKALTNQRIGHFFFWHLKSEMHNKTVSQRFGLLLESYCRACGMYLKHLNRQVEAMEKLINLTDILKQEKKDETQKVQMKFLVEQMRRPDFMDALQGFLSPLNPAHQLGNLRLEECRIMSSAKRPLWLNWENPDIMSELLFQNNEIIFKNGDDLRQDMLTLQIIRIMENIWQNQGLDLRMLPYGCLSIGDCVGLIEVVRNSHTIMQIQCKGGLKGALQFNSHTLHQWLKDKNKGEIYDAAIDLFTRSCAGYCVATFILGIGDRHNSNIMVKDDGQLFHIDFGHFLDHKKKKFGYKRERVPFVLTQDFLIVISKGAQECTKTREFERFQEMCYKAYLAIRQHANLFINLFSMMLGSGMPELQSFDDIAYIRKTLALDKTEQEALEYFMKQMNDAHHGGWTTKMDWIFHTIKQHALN
Sequence (P27986 whole entry partner): as the sequence (P27986 whole entry partner) above
Reported IC50 is given for each of the following compounds.
Write the number in nM without appending the unit.

Known IC50 results, listed for orientation:
Cc1cc(C#Cc2cncc3cc(/C=C4\SC(=O)NC4=O)oc23)ccc1F    25
O=C1NC(=O)/C(=C/c2cc3cncc(C#Cc4ccccc4)c3o2)S1    58
O=C1NC(=O)/C(=C/c2cc3cncc(-c4cccc(OCc5ccccc5)c4)c3o2)S1    2

(Q) Return the recorded IC50 value; entry: O=C1NC(=O)/C(=C/c2cc3cncc(C#Cc4ccsc4)c3o2)S1
(A) 8

(Q) Input COc1ccc(C#Cc2cncc3cc(/C=C4\SC(=O)NC4=O)oc23)cc1 , output reported IC50.
(A) 8

(Q) Fill in reported IC50 for this entry: CN(C)S(=O)(=O)c1ccc(-c2cncc3cc(/C=C4\SC(=O)NC4=O)oc23)cc1F
(A) 46

(Q) Tell me IC50 reported for O=C1NC(=O)/C(=C/c2cc3cncc(-c4ccc(O)nc4)c3o2)S1
(A) 8

(Q) Let me know recorded IC50 for Cc1ccccc1C#Cc1cncc2cc(/C=C3\SC(=O)NC3=O)oc12 , thanks.
(A) 1

---

molecular target: PI3Kγ (p120γ)(h) (Homo sapiens); experiment: Assay for phosphatidylinositol 3-kinase gamma (PI3Kγ) activity, PI3K-HTRF kit; type: biochemical; conditions: TR-FRET; enzyme 1.45 μg/ml, 10 μM PIP2, 10 μM ATP
reported metric: IC50
Units required after the number.

Solved entries (count: 3):
CN(C)S(=O)(=O)c1ccc(-c2cncc3cc(/C=C4\SC(=S)NC4=O)oc23)cc1OC(F)(F)F [Example 339]    16 nM
O=C1NC(=O)/C(=C/c2cc3cncc(C(=O)NC4CCCCC4)c3o2)S1 [Example 422]    204 nM
COc1ccc(C#Cc2cncc3cc(/C=C4\SC(=S)NC4=O)oc23)cc1OC [Example 512]    17 nM

Now let's try a different one.
(Q) Give recorded IC50. O=C1NC(=O)/C(=C/c2cc3cncc(C#Cc4ccc(OC(F)(F)F)cc4)c3o2)S1 [Example 533]
(A) 37 nM

---

Biological target: PI3Kγ (p120γ)(h) (Homo sapiens, UniProt P48736)
Sequence (P48736 whole entry): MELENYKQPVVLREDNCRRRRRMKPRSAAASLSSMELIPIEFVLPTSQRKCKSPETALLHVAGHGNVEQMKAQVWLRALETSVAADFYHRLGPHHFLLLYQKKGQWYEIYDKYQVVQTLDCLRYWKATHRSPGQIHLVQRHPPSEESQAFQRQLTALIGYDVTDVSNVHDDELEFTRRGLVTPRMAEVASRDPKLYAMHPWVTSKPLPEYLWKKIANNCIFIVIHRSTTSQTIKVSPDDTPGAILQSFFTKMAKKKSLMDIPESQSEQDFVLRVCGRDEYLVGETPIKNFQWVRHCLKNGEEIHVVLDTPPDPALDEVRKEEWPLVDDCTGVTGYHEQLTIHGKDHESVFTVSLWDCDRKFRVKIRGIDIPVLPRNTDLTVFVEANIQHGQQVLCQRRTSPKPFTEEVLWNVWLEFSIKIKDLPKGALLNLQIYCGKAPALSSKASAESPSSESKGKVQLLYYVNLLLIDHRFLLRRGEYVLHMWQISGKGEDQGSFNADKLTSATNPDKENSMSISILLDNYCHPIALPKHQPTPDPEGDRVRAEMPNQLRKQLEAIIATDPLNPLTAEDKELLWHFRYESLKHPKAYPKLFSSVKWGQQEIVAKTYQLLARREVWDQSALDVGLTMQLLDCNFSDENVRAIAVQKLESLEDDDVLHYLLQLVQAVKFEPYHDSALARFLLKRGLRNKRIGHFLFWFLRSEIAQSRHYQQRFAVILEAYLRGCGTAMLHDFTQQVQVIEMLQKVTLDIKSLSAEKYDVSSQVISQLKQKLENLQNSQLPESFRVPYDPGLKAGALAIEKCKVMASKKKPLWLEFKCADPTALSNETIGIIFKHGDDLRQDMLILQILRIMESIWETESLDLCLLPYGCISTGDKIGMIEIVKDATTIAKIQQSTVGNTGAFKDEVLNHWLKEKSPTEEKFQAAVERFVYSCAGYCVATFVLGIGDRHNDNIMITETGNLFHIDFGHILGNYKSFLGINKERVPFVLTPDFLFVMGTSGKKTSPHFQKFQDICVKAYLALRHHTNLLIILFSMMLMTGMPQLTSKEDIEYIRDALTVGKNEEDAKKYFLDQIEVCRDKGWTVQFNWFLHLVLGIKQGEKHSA
Experiment: Assay for phosphatidylinositol 3-kinase gamma (PI3Kγ) activity, PI3K-HTRF kit
Format: biochemical
Conditions: TR-FRET; enzyme 1.45 μg/ml, 10 μM PIP2, 10 μM ATP
Protocol: The compounds of the present invention were assayed for the activity of phosphatidylinositol 3-kinase gamma (PI3Kγ) by using a PI3K enzyme-homogenous time resolved fluorescence (PI3K-HTRF) kit, which is available from Upstate (Millipore Co, Billerica, Mass., USA). […]
Item-by-item account of log10(IC50)
Use the decimal logarithm of IC50 (nM).

# example entries with known answers
O=C1NC(=S)S/C1=C\c1cc2cncc(C#CC3CC3)c2o1    1.00
Cc1cc(C#Cc2cncc3cc(/C=C4\SC(=O)NC4=O)oc23)ccc1F    1.08
COC(=O)c1ccccc1C#Cc1cncc2cc(/C=C3\SC(=S)NC3=O)oc12    1.00
O=C1NC(=S)S/C1=C\c1cc2cncc(-c3ccc4c(c3)CCO4)c2o1    1.00
O=C1NC(=O)/C(=C/c2cc3cncc(-c4cccc(NS(=O)(=O)c5ccccc5)c4)c3o2)S1    2.03

(Q) In one line, give reported log10(IC50) of the entry O=C1NC(=O)/C(=C/c2cc3cncc(-c4ccc(F)cc4F)c3o2)S1 .
(A) 2.82

(Q) Return log10(IC50) for the following molecule: O=C1NC(=O)/C(=C/c2cc3cncc(-c4ccc(O)nc4)c3o2)S1
(A) 1.18

(Q) Using known records, supply log10(IC50) for Cc1cc(-c2cncc3cc(/C=C4\SC(=S)NC4=O)oc23)cc(C)c1OC(C)C
(A) 0.70

(Q) Fill in log10(IC50) for record Cc1ccccc1C#Cc1cncc2cc(/C=C3\SC(=O)NC3=O)oc12
(A) 0.85

(Q) Fill in log10(IC50) for record O=C1NC(=O)/C(=C/c2cc3cncc(C#Cc4ccc(Cl)cc4)c3o2)S1
(A) 1.43

(Q) Supply reported log10(IC50) belonging to this molecule: O=C1NC(=O)/C(=C/c2cc3cncc(C#Cc4ccsc4)c3o2)S1
(A) 1.38
